experimental_details: Cytotoxicity against human HaCaT cells assessed as reduction in cell viability incubated for 24 hrs by CCK-8 assay
Type: toxicity, cell-based
run_parameters: HaCaT cells
measured_property: CC50 at 24 h (µM)
Numbers only, in µM.

Below are worked cases with known answers.
>  <chem_smiles>
COc1ccccc1Oc1c(N)nc(-c2cccc(Br)c2)nc1Cl

>  <CC50 at 24 h / µM>
16.1

$$$$
>  <chem_smiles>
COc1cccc(-c2nc(N)c(Oc3ccccc3OC)c(Cl)n2)c1

>  <CC50 at 24 h / µM>
14

$$$$
>  <chem_smiles>
COc1ccccc1Oc1c(N)nc(-c2ccc(C)cc2)nc1OCCO

>  <CC50 at 24 h / µM>
56.6

$$$$
>  <chem_smiles>
COc1ccccc1Oc1c(N)nc(-c2ccc(F)cc2)nc1Cl

>  <CC50 at 24 h / µM>
42.6

$$$$
>  <chem_smiles>
COc1ccccc1Oc1c(N)nc(-c2ccc(C)cc2)nc1Cl

>  <CC50 at 24 h / µM>
6.3

$$$$

// each listed compound needs a value for CC50 at 24 h
1. COc1ccccc1Oc1c(N)nc(-c2cccc(F)c2)nc1Cl
2. COc1ccccc1Oc1c(N)nc(-c2ccc(Br)cc2)nc1Cl
3. COc1ccc(-c2nc(N)c(Oc3ccccc3OC)c(Cl)n2)cc1
4. COc1cccc(-c2nc(N)c(Oc3ccccc3OC)c(OCCO)n2)c1
5. COc1ccccc1Oc1c(N)nc(-c2cccc(C)c2)nc1Cl
6. COc1ccccc1Oc1c(N)nc(Cc2ccccc2)nc1Cl
7. N=C(N)NCCCCCCCN

1: 17; 2: 58.6; 3: 8.2; 4: 12.7; 5: 11.2; 6: 30.6; 7: 3.96

// each listed compound needs a value for CC50 at 24 h
1. COc1ccccc1Oc1c(N)nc(-c2ccccc2F)nc1OCCO
2. COc1ccccc1Oc1c(N)nc(-c2ccc(F)cc2)nc1OCCO

1. 39.5
2. 15.1

* * *

Could you please report measured IC50 for the items listed next?
subject_of_test: UniProt:P49366
Sequence (P49366 whole entry): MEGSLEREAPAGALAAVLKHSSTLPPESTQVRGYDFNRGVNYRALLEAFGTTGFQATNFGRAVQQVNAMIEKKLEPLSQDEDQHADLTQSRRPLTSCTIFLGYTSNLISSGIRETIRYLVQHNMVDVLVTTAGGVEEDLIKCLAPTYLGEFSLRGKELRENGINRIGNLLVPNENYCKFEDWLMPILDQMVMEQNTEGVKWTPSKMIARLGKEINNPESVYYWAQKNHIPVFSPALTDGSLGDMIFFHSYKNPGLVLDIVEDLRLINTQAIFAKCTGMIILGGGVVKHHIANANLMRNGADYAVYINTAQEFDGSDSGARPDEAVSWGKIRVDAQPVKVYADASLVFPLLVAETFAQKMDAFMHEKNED
experimental_details: Inhibition of DHPS (unknown origin ) incubated for 30 mins by NAD/NADH-Glow assay
Quote the value and follow it with the unit of measurement.

Below are worked cases with known answers.
>  <chem_smiles>
COc1ccccc1Oc1c(N)nc(-c2cccc(Cl)c2)nc1Cl

>  <measured_property>
IC50

>  <value_measured>
20000 nM

$$$$
>  <chem_smiles>
COc1ccccc1Oc1c(NS(=O)(=O)c2ccc(C(C)(C)C)cc2)nc(-c2ncccn2)nc1OCCO

>  <measured_property>
IC50

>  <value_measured>
60800 nM

$$$$
>  <chem_smiles>
COc1ccccc1Oc1c(N)nc(-c2ccc(Br)cc2)nc1Cl

>  <measured_property>
IC50

>  <value_measured>
14 nM

$$$$
>  <chem_smiles>
COc1ccccc1Oc1c(N)nc(-c2cccc(F)c2)nc1OCCO

>  <measured_property>
IC50

>  <value_measured>
330 nM

$$$$

Please examine the following record next.
Need IC50, item `COc1cccc(-c2nc(N)c(Oc3ccccc3OC)c(Cl)n2)c1`
40 nM

* * *

experimental_details: AUC (0 to infinity) in Sprague-Dawley rat at 160 mg/kg, ip by UHPLC-MS analysis
Type: ADME, organism-based
Design: route intraperitoneal, time infinity, dose 160 mg/kg
run_parameters: in vivo
measured_property: AUC(0-inf) (ng·h/mL)
Numbers only, in ng·h/mL.

Need AUC(0-inf), item `COc1ccccc1Oc1c(N)nc(-c2ccc(Br)cc2)nc1Cl`
5660

Sourced from ChEMBL document CHEMBL5042482
